The measurements presented in this section are drawn from paper PMC7529893.

Quick list: percent inhibition (TR-FRET) per entry.
# Assay target: MAGE-A11:PCF11 interaction (GST-MAGE-A11 and FAM-PCF11_4) (Homo sapiens)
# Construct: GST-MAGE-A11 MHD (human MAGE-A11 MHD amino acid 218-429); made in house; host or cells: E. coli BL21(DE3)
# Sequence (P43364 218-429): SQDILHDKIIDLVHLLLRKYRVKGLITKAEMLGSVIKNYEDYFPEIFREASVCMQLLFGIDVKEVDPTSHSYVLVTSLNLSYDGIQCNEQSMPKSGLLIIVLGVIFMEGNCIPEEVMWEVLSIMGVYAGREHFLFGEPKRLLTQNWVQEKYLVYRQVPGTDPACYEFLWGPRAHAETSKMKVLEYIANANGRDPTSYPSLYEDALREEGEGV
# Protocol: TR-FRET primary / single point screen at 15 µM
# Type: binding
# Experimental setup: single point TR-FRET screening of 797 quinoline compounds against MAGE-A11:PCF11
Please give the numeric answer without any surrounding text.

What does the record list as percent inhibition (TR-FRET) for CCCN(CCCCNc1ccnc2cc(Cl)ccc12)Cc1ccoc1 [SJ000311200] ?
12.3053

What does the record list as percent inhibition (TR-FRET) for Clc1ccc2c(NC3CCN(Cc4ccc(Cl)o4)CC3)ccnc2c1 [SJ000311180] ?
0.6827

What does the record list as percent inhibition (TR-FRET) for O=S(=O)(c1ccccc1)c1cnc2ccc(F)cc2c1N1CCN(c2ccccc2)CC1 [SJ000083976] ?
-31.1045

What does the record list as percent inhibition (TR-FRET) for CCOC(=O)c1cnc2c(CC)cccc2c1NCCN1CCOCC1 [SJ000279714] ?
-6.103

What does the record list as percent inhibition (TR-FRET) for CCc1ccc2ncc(S(=O)(=O)c3ccc(Cl)cc3)c(N3CCN(CC)CC3)c2c1 [SJ000083968] ?
-19.1318

What does the record list as percent inhibition (TR-FRET) for COC(=O)CN1CCN(c2cc(C)nc3ccccc23)C(C)C1=O (centres unmarked) [SJ000516812] ?
3.503
